All figures here come from BindingDB's records for doi:10.1016/j.bmcl.2008.03.029.

Experiment: Inhibition of human recombinant SAHH at 1000 uM
quantityKind: pIC50
The scale used: pIC50 is minus the common logarithm of the concentration in molar units.

Per the records, this compound ( Nc1ncnc2c1ncn2[C@@H]1CC[C@@H](O)[C@H]1O ) has pIC50 equal to 4.74
